ASSAY_PROCEDURE: Rat intravenous pharmacokinetics (volume of distribution, plasma clearance)
SETTINGS: male, Sprague-Dawley, plasma, iv, 3 mg/kg
PROPERTY_LABEL: clearance

SAMPLE_SMILES	clearance
CCC(CC)c1cc(C)nn2c(-c3sc4ccc(F)cc4c3C)c(C)nc12	9 mL/min/kg

Looking for the measured clearance of CCCCN(CC)c1nc(C)nc2c1c(C)cn2-c1c(C)cc(C)cc1C , can you help?
83 mL/min/kg
